The measured values listed here are drawn from patent US20200095340A1.

target: biotinylated human DLL3 protein expressed as a human IgG1 fusion protein (human) (UniProt Q9NYJ7); test: Octet BLI; biotinylated huDLL3-IgG1 fusion on streptavidin tips; single 50 nM; conditioned medium
Sequence (Q9NYJ7 other isoform, or with tags, fused parts or gaps): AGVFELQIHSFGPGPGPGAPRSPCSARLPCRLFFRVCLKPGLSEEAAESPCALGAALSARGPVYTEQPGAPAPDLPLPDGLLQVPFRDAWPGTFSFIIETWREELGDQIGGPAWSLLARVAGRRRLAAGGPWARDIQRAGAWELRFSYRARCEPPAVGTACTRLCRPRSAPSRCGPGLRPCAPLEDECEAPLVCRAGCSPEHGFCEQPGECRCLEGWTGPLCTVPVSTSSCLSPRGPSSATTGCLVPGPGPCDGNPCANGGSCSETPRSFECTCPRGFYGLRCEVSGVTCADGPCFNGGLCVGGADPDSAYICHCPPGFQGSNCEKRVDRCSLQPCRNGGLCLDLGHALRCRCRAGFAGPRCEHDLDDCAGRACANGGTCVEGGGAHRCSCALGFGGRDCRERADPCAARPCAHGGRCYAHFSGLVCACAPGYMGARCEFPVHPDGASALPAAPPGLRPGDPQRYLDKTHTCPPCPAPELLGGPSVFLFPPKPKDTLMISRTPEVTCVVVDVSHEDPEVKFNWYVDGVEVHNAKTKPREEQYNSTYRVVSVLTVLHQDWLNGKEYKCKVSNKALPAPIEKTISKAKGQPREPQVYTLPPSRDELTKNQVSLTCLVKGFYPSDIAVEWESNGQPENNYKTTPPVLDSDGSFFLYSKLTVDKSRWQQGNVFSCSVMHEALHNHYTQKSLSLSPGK
measurement.label: Kd (nM)
Could you give me the number in nM? Just the number is fine.

binder	Kd, nM
anti-DLL3 trispecific protein 1E07 (protein, part only; not given: anti-CD3 fragment and anti-albumin sdAb, part only) chain, part: EVQLVESGGGLVQPGGSLTLSCVASGSTSSINAMAWYRRAPGKQRELVAGISSDGSKVYNDSVKGRFTISRDNAKNSVYLQMNSLRAEDTAVYYCYYFRTVRGSSQRYWGQGTLVTVSSGGGGSGGGSGGGGSGGGSHHHHHH	7.1

Given the binder anti-DLL3 trispecific protein 1D011 (protein, part only; not given: anti-CD3 and anti-albumin domains, part only) chain, part: EVQLVESGGGLVQPGGSLTLSCVASGSTSSINAMAWYRRAPGKQRELVAGISSDNSKVYADSVKGRFTISRDNAKNSVYLQMNSLRAEDTAVYYCYYFRTVSGHSMRYWGQGTLVTVSSGGGGSGGGSGGGGSGGGSHHHHHH , what is its reported Kd? 4.4
